Where do these numbers come from? They come from ChEMBL document CHEMBL3259745.

assay: Cytotoxicity against HEK293T cells expressing FXR and beta-lactamase genes assessed as inhibition of cell viability at 40 uM after 16 hrs by CellTiter-Glo luminescent assay relative to control; type: cell-based, HEK-293T; settings: human, read-out: INH
Below: a set of entries, each annotated with reported cytotoxicity at 16 h, 40 µM.
Hi! Could you send only the number? It should be in %, unit omitted.

// known answers, use as guide
>>> result_value("O=C(Nc1ccc(S(=O)(=O)N2CCOCC2)cc1)c1cn(-c2ccccc2)nc1-c1ccccc1")
7.4
>>> result_value("COc1cccc(Cn2cc(C(=O)N(C)c3ccc(C)c(S(=O)(=O)N4CCOCC4)c3)c(C(C)C)n2)c1")
13.5
>>> result_value("Cc1ccc(NC(=O)c2c(C)nn(-c3ccccc3)c2C)cc1S(=O)(=O)N1CCOCC1")
47.4
>>> result_value("COc1cccc(Cn2cc(C(=O)N(C)c3ccc(C)c(S(=O)(=O)N4CCOCC4)c3)c(-c3cccc(OC)c3)n2)c1")
19.7
>>> result_value("Cc1ccc(NC(=O)c2cnn(-c3ccccc3)c2C(F)(F)F)cc1S(=O)(=O)N1CCOCC1")
51.3

Continue with the next compound.
Item: `Cc1ccc(-c2nn(-c3ccc(F)cc3)cc2C(=O)Nc2ccc(C)c(S(=O)(=O)N3CCOCC3)c2)cc1` | cytotoxicity at 16 h, 40 µM: 18.5

----------
assay: Cytotoxicity against HEK293T cells expressing FXR and beta-lactamase genes assessed as inhibition of cell viability at 4.4 uM after 16 hrs by CellTiter-Glo luminescent assay relative to control; type: cell-based, HEK-293T; conditions: human, read-out: INH
outcome-measure: cytotoxicity at 16 h, 4.4 µM (%)
Hi! Could you send only the number? It should be in %, unit omitted.

// known answers, use as guide
>>> result_value("Cc1ccc(-c2nn(Cc3ccc4ccccc4c3)cc2C(=O)Nc2ccc(C)c(S(=O)(=O)N3CCOCC3)c2)cc1")
7.9
>>> result_value("CCCCn1cc(C(=O)Nc2ccc(C)c(S(=O)(=O)N3CCOCC3)c2)c(-c2ccc(C)cc2)n1")
10.3

Continue with the next compound.
Item: `COc1cccc(-c2nn(C(C)C)cc2C(=O)Nc2ccc(C)c(S(=O)(=O)N3CCOCC3)c2)c1` | cytotoxicity at 16 h, 4.4 µM: 10.8

----------
biological target: Bile acid receptor (Homo sapiens) (UniProt Q96RI1); test: Inhibition of GW4064-induced transactivation of FXR (unknown origin) expressed in HEK293T cells at 40 uM after 16 hrs by beta-lactamase reporter gene assay relative to control; assay type: cell-based; settings: HEK-293T
Sequence (Q96RI1 whole entry): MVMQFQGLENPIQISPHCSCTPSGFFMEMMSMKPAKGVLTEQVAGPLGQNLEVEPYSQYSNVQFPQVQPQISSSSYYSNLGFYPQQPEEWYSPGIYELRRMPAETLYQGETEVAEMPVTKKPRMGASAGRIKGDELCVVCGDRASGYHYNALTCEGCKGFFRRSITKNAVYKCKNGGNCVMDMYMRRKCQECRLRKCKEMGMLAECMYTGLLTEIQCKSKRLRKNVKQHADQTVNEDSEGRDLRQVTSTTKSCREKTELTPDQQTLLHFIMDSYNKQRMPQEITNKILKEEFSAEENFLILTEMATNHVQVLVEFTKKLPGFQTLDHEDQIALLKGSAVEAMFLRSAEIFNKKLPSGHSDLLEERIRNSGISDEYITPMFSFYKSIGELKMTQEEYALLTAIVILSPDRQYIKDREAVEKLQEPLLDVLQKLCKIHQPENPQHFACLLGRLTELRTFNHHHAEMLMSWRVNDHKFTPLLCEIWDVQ
outcome-measure: inhibition (%)
Hi! Could you send only the number? It should be in %, unit omitted.

// known answers, use as guide
>>> result_value("COc1cccc(Cn2cc(C(=O)Nc3ccc(C)c(S(=O)(=O)N4CCOCC4)c3)c(-c3cccc(OC)c3)n2)c1")
89.4
>>> result_value("Cc1ccc(-c2nn(-c3ccccc3)cc2C(=O)Nc2ccc(C)c(S(=O)(=O)N3CCOCC3)c2)cc1")
77.2
>>> result_value("Cc1ccc(-c2nn(C(C)C)cc2C(=O)N(C)c2ccc(C)c(S(=O)(=O)N3CCOCC3)c2)cc1")
86.4

Continue with the next compound.
Item: `Cc1ccc(NC(=O)c2cnn(-c3ccccc3)c2C(F)(F)F)cc1S(=O)(=O)N1CCOCC1` | inhibition: 101

----------
molecular target: Bile acid receptor (Homo sapiens) (UniProt Q96RI1); assay: Inhibition of GW4064-induced transactivation of FXR (unknown origin) expressed in HEK293T cells at 40 uM after 16 hrs by beta-lactamase reporter gene assay relative to control; type: cell-based; conditions: HEK-293T
outcome-measure: inhibition

Item: `COc1cccc(-c2nn(C(C)C)cc2C(=O)Nc2ccc(C)c(S(=O)(=O)N3CCOCC3)c2)c1` | inhibition: 97.8%

Item: `COc1cccc(Cn2cc(C(=O)Nc3ccc(C)c(S(=O)(=O)N4CCOCC4)c3)c(-c3ccc(C(F)(F)F)cc3)n2)c1` | inhibition: 97.6%

Item: `O=C(Nc1cccc(S(=O)(=O)N2CCOCC2)c1)c1cn(-c2ccccc2)nc1-c1ccc(F)cc1` | inhibition: 42.6%

Item: `O=C(Nc1ccc(F)c(S(=O)(=O)N2CCOCC2)c1)c1cnn(-c2ccccc2)c1` | inhibition: 80.3%

Item: `Cc1ccc(-c2nn(C(C)C)cc2C(=O)Nc2ccc(C)c(S(=O)(=O)N3CCOCC3)c2)cc1` | inhibition: 99.1%

Item: `O=C(Nc1cccc(S(=O)(=O)N2CCOCC2)c1)c1cn(-c2ccccc2)nc1-c1cccnc1` | inhibition: 82.3%

Item: `O=C(Nc1cccc(S(=O)(=O)N2CCOCC2)c1)c1cn(-c2ccccc2)nc1-c1ccc(Cl)cc1` | inhibition: 38.8%

Item: `Cc1ccc(-c2nn(-c3cccc(C(F)(F)F)c3)cc2C(=O)Nc2ccc(C)c(S(=O)(=O)N3CCOCC3)c2)cc1` | inhibition: 54.8%

----------
molecular target: Bile acid receptor (Homo sapiens); assay: Antagonist activity at human GST-tagged FXR at 4.4 uM after 20 mins by TR-FRET assay relative to control
Below: a set of entries, each annotated with reported inhibition.
Hi! Could you send only the number? It should be in %, unit omitted.

>>> result_value("COc1cccc(Cn2cc(CNc3ccc(C)c(S(=O)(=O)N4CCOCC4)c3)c(C(C)C)n2)c1")
72.5

Item: `Cc1ccc(NC(=O)c2cn(C(C)C)nc2-c2ccc(C(F)(F)F)cc2)cc1S(=O)(=O)N1CCOCC1` | inhibition: 133

Item: `COc1cccc(Cn2cc(C(=O)Nc3ccc(C)c(S(=O)(=O)N4CCOCC4)c3)c(C(C)C)n2)c1` | inhibition: 101

Item: `Cc1ccc(-c2nn(C(C)C)cc2C(=O)Nc2ccc(C)c(S(=O)(=O)N3CCOCC3)c2)cc1` | inhibition: 131

----------
Below: a set of entries, each annotated with reported inhibition.
molecular target: Bile acid receptor (Homo sapiens) (UniProt Q96RI1); assay: Antagonist activity at human GST-tagged FXR at 13.3 uM after 20 mins by TR-FRET assay relative to control
Hi! Could you send only the number? It should be in %, unit omitted.

>>> result_value("Cc1ccc(NC(=O)c2cnn(-c3cccnc3)c2)cc1S(=O)(=O)N1CCOCC1")
18.8
>>> result_value("O=C(Nc1ccc(F)c(S(=O)(=O)N2CCOCC2)c1)c1cnn(-c2ccccc2)c1")
83.8

Continue with the next molecule.
Item: `Cc1ccc(NC(=O)c2cnn(-c3ccccc3)c2C(F)(F)F)cc1S(=O)(=O)N1CCOCC1` | inhibition: 99.8

----------
Below: a set of entries, each annotated with reported inhibition.
molecular target: Bile acid receptor (Homo sapiens); experiment: Inhibition of GW4064-induced transactivation of FXR (unknown origin) expressed in HEK293T cells at 40 uM after 16 hrs by beta-lactamase reporter gene assay relative to control; format: cell-based; settings: HEK-293T
Hi! Could you send only the number? It should be in %, unit omitted.

>>> result_value("Cc1cccc(-n2ncc(C(=O)Nc3cccc(S(=O)(=O)N4CCOCC4)c3)c2C)c1")
66.9
>>> result_value("COc1cccc(Cn2cc(C(=O)Nc3ccc(C)c(S(=O)(=O)N4CCOCC4)c3)c(-c3ccc(C)cc3)n2)c1")
98.9
>>> result_value("Cc1ccc(-c2nn(-c3cccc(Cl)c3)cc2C(=O)Nc2ccc(C)c(S(=O)(=O)N3CCOCC3)c2)cc1")
60.6

Continue with the next compound.
Item: `Cc1ccc(-c2nn(-c3ccc(Cl)cc3Cl)cc2C(=O)Nc2ccc(C)c(S(=O)(=O)N3CCOCC3)c2)cc1` | inhibition: 89.9

----------
assay: Cytotoxicity against HEK293T cells expressing FXR and beta-lactamase genes assessed as inhibition of cell viability at 40 uM after 16 hrs by CellTiter-Glo luminescent assay relative to control; assay type: cell-based, HEK-293T; conditions: human, read-out: INH
outcome-measure: cytotoxicity at 16 h, 40 µM

// known answers, use as guide
>>> result_value("Cc1ccc(-c2nn(Cc3cccc(C(F)(F)F)c3)cc2C(=O)Nc2ccc(C)c(S(=O)(=O)N3CCOCC3)c2)cc1")
"< 5%"
>>> result_value("COc1cccc(Cn2cc(C(=O)Nc3ccc(C)c(S(=O)(=O)N4CCOCC4)c3)c(-c3ccc(C(F)(F)F)cc3)n2)c1")
"< 5%"
>>> result_value("Cc1ccc(-c2nn(CC3CC3)cc2C(=O)Nc2ccc(C)c(S(=O)(=O)N3CCOCC3)c2)cc1")
"< 5%"
>>> result_value("Cc1ccc(-c2nn(-c3ccccc3)cc2C(=O)Nc2ccc(C)c(S(=O)(=O)N3CCOCC3)c2)cc1")
"17.9%"

Item: `Cc1ccc(-c2nn(-c3ccc(Cl)cc3Cl)cc2C(=O)Nc2ccc(C)c(S(=O)(=O)N3CCOCC3)c2)cc1` | cytotoxicity at 16 h, 40 µM: < 5%

Item: `CC(C)c1onc(-c2c(Cl)cccc2Cl)c1COc1ccc(/C=C/c2cccc(C(=O)O)c2)c(Cl)c1` | cytotoxicity at 16 h, 40 µM: < 5%

Item: `COc1cccc(Cn2cc(CNc3ccc(C)c(S(=O)(=O)N4CCOCC4)c3)c(C(C)C)n2)c1` | cytotoxicity at 16 h, 40 µM: 13.9%

Item: `Cc1ccc(-c2nn(C(C)C)cc2C(=O)Nc2ccc(C)c(S(=O)(=O)N3CCOCC3)c2)cc1` | cytotoxicity at 16 h, 40 µM: < 5%

Item: `COCCc1nn(Cc2cccc(OC)c2)cc1C(=O)Nc1ccc(C)c(S(=O)(=O)N2CCOCC2)c1` | cytotoxicity at 16 h, 40 µM: < 5%
